This collection of values is drawn from PubChem BioAssay.

- MEASUREMENT TARGET: Dihydroorotate dehydrogenase (quinone), mitochondrial (Plasmodium falciparum (isolate 3D7))
- METHOD DESCRIPTION: inhibition of P. falciparum DHODH – biochemical, C-terminal His tag, absorbance 600 nm, primary screen (AID 1175);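 further: recombinant parasite enzyme with a five histidine tag at its C terminus; test concentration not given here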
- ASSAY CONTEXT: PfDHODH enzyme, DCIP absorbance 600 nm; higher = more signal, called active from +8 up or from −8 down
Recorded measurements of composite z-score, one per entry
Keep the answer to the number alone.

Observe how each entry below is paired with its result.
Form field composite z-score, entry Cc1cc(C)c(C(O)C2C=CC3C(=O)N(c4ccccc4)C(=O)C3N2Nc2ccccc2F)c(C)c1 (stereo not drawn) : 1.03

Looking up CCCNC(=O)[C@@H]1c2ccccc2C(=O)N(Cc2ccc(OC(F)(F)F)cc2)[C@H]1c1ccc(CO)cc1 , I found its composite z-score recorded as -0.966

GET /value?item= COC(=O)[C@@]1(Cc2ccc(OC)cc2)[C@H]2c3cc(C(=O)N(C)C)n(Cc4ccc(OC(F)(F)F)cc4)c3C[C@H]2CN1C(=O)c1ccccc1 &field=composite z-score returns 0.546

Notebook: CC1CC/C=C\[C@H]2OC34C=CCN(c5ccc(Cl)cc5)C(=O)[C@H]3N(C(C)CO)C(=O)[C@]4(C)C2C(=O)O1 (stereo partly drawn) , composite z-score read as 0.291

More entries:
Record summary for CC(CO)N1C(=O)[C@]2(C)C3C(=O)OCCC/C=C\[C@H]3OC23C=CCN(c2ccc(Cl)cc2)C(=O)[C@@H]13 (stereo partly drawn) : reported composite z-score = -0.924
